Experiment: viability loss of HPDE-C7K cells – cell-based, fluorescence, HTS, primary screen (AID 431)
Details: HPDE-C7K KRASV12 cells, Alamar Blue viability, 48 h; at 10 µM
Among all 63,000 compounds or so, about 1,100 (1.7%) were called active.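 Rule for the calls: active = compounds whose percent cytotoxicity in the single-dose primary screen, scaled between solvent and toxic-drug controls, exceeds 50; inactive = the rest.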 The sample holds actives, similar compounds and a random draw of the others, so the mix is not that of the screen. Measured potencies and affinities stand elsewhere.
Possible outcomes: active, inactive

[[record]]
compound = "Cc1ccc(CN2CC34C=CC(O3)C(C(=O)NCc3ccc5c(c3)OCO5)C4C2=O)cc1 (centres undefined)"
group = "inactive"

[[record]]
compound = "Cc1cccc(Cn2cnc3c(nnn3Cc3ccc(Cl)cc3)c2=O)c1"
group = "inactive"

[[record]]
compound = "O=C(CN1C(=O)COc2ccccc21)N(Cc1cccnc1)Cc1cccc(F)c1"
group = "inactive"

[[record]]
compound = "O=C(Nc1nc(-c2ccc3c(c2)OCO3)cs1)C1CC1"
group = "inactive"

[[record]]
compound = "N#Cc1ccc(NC(=O)Nc2ccc(Cl)cc2)cc1"
group = "active"

[[record]]
compound = "CCN1CCCC1CNCc1ccc(Cl)cc1Cl (centres undefined)"
group = "inactive"

[[record]]
compound = "Cc1ccc(NS(=O)(=O)c2cc(C(=O)N3CCOCC3)ccc2C)cc1C"
group = "inactive"

[[record]]
compound = "COc1ccc(CCNC(=O)CCS(=O)(=O)c2cccc3nsnc23)cc1OC"
group = "inactive"

[[record]]
compound = "Cc1cc(C)nc(NC(=O)c2cccc(Cl)c2)n1"
group = "inactive"

[[record]]
compound = "C=CCn1c(SCC(=O)Nc2cc3oc4ccccc4c3cc2OC)nnc1-c1cnccn1"
group = "active"

[[record]]
compound = "NS(=O)(=O)c1ccc(Nc2nc(-c3ccc(O)cc3)cs2)cc1"
group = "inactive"

[[record]]
compound = "COc1cc(Nc2cc(C)nc3nc(C)nn23)cc(OC)c1OC"
group = "inactive"

[[record]]
compound = "O=C1CC(O)(C(F)(F)F)Oc2c1ccc1ccccc21 (centres undefined)"
group = "active"

[[record]]
compound = "O=C(NCCN1CCN(c2ccccc2F)CC1)C1c2ccccc2C(=O)N2CCc3ccccc3C12 (centres undefined)"
group = "inactive"

[[record]]
compound = "CCCCOC(=O)CSC1=C(C#N)C(c2ccc3c(c2)OCO3)CC(=O)N1 (centres undefined)"
group = "inactive"

[[record]]
compound = "c1cc2c(cc1Nc1nc(-c3ccc4c(c3)OCO4)cs1)OCCO2"
group = "active"

[[record]]
compound = "c1ccc(-c2noc(CN3CCN(C(c4ccccc4)c4ccccc4)CC3)n2)cc1"
group = "inactive"

[[record]]
compound = "Cn1cccc1C(C(=O)NC1CCCCC1)N(C(=O)Cc1cccs1)C1CC1 (centres undefined)"
group = "inactive"

[[record]]
compound = "CC1C(=O)C(C)C(c2ccc3c(c2)OCO3)NC1c1ccc2c(c1)OCO2 (centres undefined)"
group = "inactive"

[[record]]
compound = "CCOC(=O)c1cc2c(=O)n3cccc(C)c3nc2n(C)c1=N"
group = "active"

[[record]]
compound = "c1cncc(Nc2nc(-c3ccncc3)cs2)c1"
group = "inactive"

[[record]]
compound = "O=C(Nc1ccccc1)NC1(C(=O)NCCCN2CCOCC2)CCCCC1"
group = "inactive"

[[record]]
compound = "CC(=O)OCC1OC(n2ccc(=O)[nH]c2=O)C(O)C1O (centres undefined)"
group = "inactive"

[[record]]
compound = "C=CCNc1nc(-c2sc(NC(=O)CC)nc2C)cs1"
group = "inactive"

[[record]]
compound = "CC(=O)OC[C@H]1O[C@@H](n2ccc(=O)[nH]c2=S)C(OC(C)=O)C1OC(C)=O (some centres undefined)"
group = "inactive"

[[record]]
compound = "CSc1nnc(-c2sc3cc(Cl)ccc3c2Cl)n1C"
group = "inactive"

[[record]]
compound = "Cc1nn(Cc2ccc(Cl)cc2Cl)c(C)c1NC(=O)c1nc2n(n1)C(C(F)F)CC(C)N2 (centres undefined)"
group = "inactive"

[[record]]
compound = "CCn1cc(C(=O)NCc2ccccc2OC)c(=O)c2ccc(C)nc21"
group = "inactive"

[[record]]
compound = "CC(=O)NC1(C(F)(F)F)C(=O)Nc2c1c(=O)[nH]c(=O)n2Cc1ccco1 (centres undefined)"
group = "inactive"

[[record]]
compound = "CN(CC(=O)Nc1ccc(C#N)cc1)Cc1ccc(Cl)cc1"
group = "inactive"

[[record]]
compound = "Cc1cc(C(=O)CN2C(=O)NC(c3ccccc3)(c3ccccc3)C2=O)c(C)n1Cc1ccco1"
group = "inactive"

[[record]]
compound = "Cc1cccn2c(=O)c3cc(C(=O)NCCN4CCOCC4)c(=N)n(CCc4ccccc4)c3nc12"
group = "inactive"

[[record]]
compound = "O=C(Cc1ccc(Cl)c(Cl)c1)OCC(=O)c1ccc[nH]1"
group = "inactive"

[[record]]
compound = "C=CCNc1nc(-c2sc(NC(C)=O)nc2C)cs1"
group = "inactive"

[[record]]
compound = "Cc1cccc(NC(=O)Nc2ccc(C#N)cc2)n1"
group = "inactive"

[[record]]
compound = "O=C(NC1CCCC1)C(c1cccs1)N(C(=O)c1ccno1)c1ccccc1 (centres undefined)"
group = "inactive"

[[record]]
compound = "CC(=O)Nc1nc(C)c(-c2csc(Nc3ccc(O)cc3)n2)s1"
group = "active"

[[record]]
compound = "CN1/C(=C\\P(=O)(N(C)C)N(C)C)C(C)(C)c2ccccc21"
group = "inactive"

[[record]]
compound = "COc1ccc(C2N=C(Nc3ccc(C)cc3)Nc3nc(C)cc(=O)n32)cc1 (centres undefined)"
group = "inactive"

[[record]]
compound = "CCNC(=O)c1cc2c(=O)n3cccc(C)c3nc2n(CCc2ccccc2)c1=N"
group = "active"

[[record]]
compound = "CSCCC(NC(=O)c1ccco1)C(=O)OC(C)C(=O)NC(=O)NC1CCCCC1 (centres undefined)"
group = "inactive"

[[record]]
compound = "CC1(C)Cc2c(c(N3CCOCC3)nc3sc(C(=O)N4CCCCC4)c(N)c23)CO1"
group = "inactive"

[[record]]
compound = "COC(=O)c1cn(CC(=O)N2CCCCCC2)c2ccccc12"
group = "inactive"

[[record]]
compound = "CCOC(=O)c1cc2c(=O)n3cccc(C)c3nc2n(CCc2ccccc2)c1=N"
group = "inactive"

